# Target Of Assay: human CYP3A4 (Homo sapiens, UniProt P08684)
# Sequence (P08684 whole entry): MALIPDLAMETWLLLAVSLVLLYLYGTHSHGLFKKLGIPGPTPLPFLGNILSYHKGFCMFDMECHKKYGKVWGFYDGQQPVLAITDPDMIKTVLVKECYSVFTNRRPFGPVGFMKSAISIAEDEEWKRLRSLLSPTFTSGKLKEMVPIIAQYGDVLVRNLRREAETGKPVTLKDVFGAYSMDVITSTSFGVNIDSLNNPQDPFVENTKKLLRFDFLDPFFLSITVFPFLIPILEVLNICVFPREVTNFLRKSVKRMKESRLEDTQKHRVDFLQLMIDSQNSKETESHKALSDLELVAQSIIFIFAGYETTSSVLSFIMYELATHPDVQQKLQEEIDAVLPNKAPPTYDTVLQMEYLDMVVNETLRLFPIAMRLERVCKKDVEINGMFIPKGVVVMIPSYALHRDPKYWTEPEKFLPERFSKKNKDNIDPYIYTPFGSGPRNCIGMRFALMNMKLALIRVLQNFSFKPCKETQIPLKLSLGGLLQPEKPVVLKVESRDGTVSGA
# Assay Notes: Enzyme kinetics of substrate turnover with cDNA-expressed CYP3A4 (fluorometric)
# Type: biochemical
# Experimental Setup: human; cDNA-expressed CYP3A4, 1 pmole/well, 37° C., 45 minutes
Quantity Measured: Km at 0.75 h

* O=c1cc(C(F)(F)F)c2ccc(OCc3ccccc3)cc2o1 | > 200 µM

FYI, the data here is from patent US6207404A.
